experiment: Stability testing of tetrazine compounds in 10% FBS/DMEM (HPLC residual amount); assay type: physicochemical; conditions: 24 h, 100 µM, 2.5% DMSO
Entry flag: true (1) if residual amount of tetrazine compound reaches 80%; false (0) if it does not.

Some solved entries appear below for comparison.
{"columns": ["Compound", "Cat"],
 "data": [
  ["COc1c(C)cnc(-c2nnc(-c3ccccc3)nn2)c1C", "true (1)"],
  ["COc1ccnc(-c2nnc(-c3ccccn3)nn2)c1C", "false (0)"],
  ["COc1ccnc(-c2nnc(-c3ccc(NC(=O)OC(C)(C)C)cc3)nn2)c1C", "true (1)"],
  ["COc1ccnc(-c2nnc(-c3ccc(CNC(=O)OC(C)(C)C)cc3)nn2)c1C", "true (1)"],
  ["COc1ccnc(-c2nnc(-c3ccccc3)nn2)c1C", "true (1)"]
]}

Switching to the query record.
Request: Decide: residual amount of tetrazine compound of c1ccc(-c2nnc(-c3ccccn3)nn2)nc1 [Tz-Py, reference compound] >= 80%?
Result: false (0)

// data source = patent US12559475B2
